Consider the following compounds; for each one, report its pIC50.
target: IgE-Tb / FcεRIα-Y131A-AF488 (Homo sapiens, UniProt P01854); assay: IgE-Tb / FcεRIα-Y131A-AF488 FRET assay (protocol for examples 1 to 233); conditions: examples 1 to 233: 5 nM IgE-Tb, 25 nM FcεRIα-Y131A-AF488, incubated 2 hours at room temperature; read-out: Y131A FRET IC50 range
Sequence (P01854 1-427 limits assumed, stated change not applied): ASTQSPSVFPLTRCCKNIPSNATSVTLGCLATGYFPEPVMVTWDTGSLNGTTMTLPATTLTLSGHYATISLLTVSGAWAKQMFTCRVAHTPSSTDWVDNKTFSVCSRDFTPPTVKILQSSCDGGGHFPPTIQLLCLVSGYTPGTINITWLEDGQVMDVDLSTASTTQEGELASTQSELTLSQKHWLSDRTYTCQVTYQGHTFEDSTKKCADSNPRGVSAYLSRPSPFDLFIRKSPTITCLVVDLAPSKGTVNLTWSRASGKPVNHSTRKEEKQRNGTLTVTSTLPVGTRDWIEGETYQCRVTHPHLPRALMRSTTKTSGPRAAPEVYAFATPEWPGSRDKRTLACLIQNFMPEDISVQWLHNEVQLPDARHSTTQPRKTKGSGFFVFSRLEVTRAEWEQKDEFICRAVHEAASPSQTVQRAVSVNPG
pIC50: −log10 of the molar value.

Examples from the recorded data:
INSERT INTO results (compound, experimental_target, measured) VALUES
  ('Cc1ccc(NCC2(O)CCc3sc(NC(=O)C4CC4)c(C(=O)NCC4CC4)c3C2)cc1 (stereo not shown) [Example 60]', 'IgE-Tb / FcεRIα-Y131A-AF488 (Homo sapiens, UniProt P01854)', '5.00 to 6.00'),
  ('O=C(Nc1cccc(-c2ccno2)c1)C1CCc2sc(NC(=O)C3CC3)c(S(=O)(=O)NCC3CC3)c2C1 (stereo not shown) [Example 35]', 'IgE-Tb / FcεRIα-Y131A-AF488 (Homo sapiens, UniProt P01854)', '> 6.00');

State the recorded pIC50 for every item in the following list.
1. O=C(NCC1CC1)c1c(NC(=O)C2CC2)sc2c1C[C@@H](n1ccnc1NCC1CC1)CC2 [Example 133]
2. Cc1coc(C2CCc3sc(NC(=O)C4CC4)c(C(=O)NCC4CC4)c3C2)n1 (stereo not shown) [Example 68]

RESULT:
> 6.00
5.00 to 6.00
